Source listed as ChEMBL document CHEMBL4229387.

tested.target: Dipeptidyl peptidase 4 (Sus scrofa)
Sequence (P22411 whole entry): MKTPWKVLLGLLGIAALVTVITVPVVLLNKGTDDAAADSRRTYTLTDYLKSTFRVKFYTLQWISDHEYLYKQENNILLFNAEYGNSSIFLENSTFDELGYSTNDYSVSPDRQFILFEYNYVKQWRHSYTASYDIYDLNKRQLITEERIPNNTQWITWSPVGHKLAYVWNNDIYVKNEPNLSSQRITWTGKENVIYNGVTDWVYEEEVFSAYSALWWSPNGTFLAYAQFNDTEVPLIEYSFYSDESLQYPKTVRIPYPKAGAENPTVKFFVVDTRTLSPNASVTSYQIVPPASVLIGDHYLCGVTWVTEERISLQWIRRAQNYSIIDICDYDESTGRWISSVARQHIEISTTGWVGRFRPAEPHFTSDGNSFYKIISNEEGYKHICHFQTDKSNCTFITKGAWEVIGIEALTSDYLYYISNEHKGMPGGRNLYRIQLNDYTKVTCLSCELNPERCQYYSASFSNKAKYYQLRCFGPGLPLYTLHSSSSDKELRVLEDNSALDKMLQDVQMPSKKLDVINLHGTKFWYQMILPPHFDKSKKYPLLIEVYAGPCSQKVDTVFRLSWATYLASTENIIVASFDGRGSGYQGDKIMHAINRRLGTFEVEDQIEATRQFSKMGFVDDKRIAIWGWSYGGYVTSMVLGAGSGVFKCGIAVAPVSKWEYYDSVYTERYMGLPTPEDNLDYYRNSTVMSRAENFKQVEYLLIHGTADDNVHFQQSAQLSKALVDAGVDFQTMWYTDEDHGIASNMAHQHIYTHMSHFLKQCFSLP
assay.method.text: Inhibition of porcine kidney DPP4
pIC50: −log10 of the molar value.
outcome.measure: pIC50

[ask] Fill blank: measured pIC50 of the substance H-MAGVDHI-OH is ____.
[reply] 3.80 to 4.37

* * *

tested.target: Dipeptidyl peptidase 4 (Homo sapiens, UniProt P27487)
Sequence (P27487 whole entry, looked up): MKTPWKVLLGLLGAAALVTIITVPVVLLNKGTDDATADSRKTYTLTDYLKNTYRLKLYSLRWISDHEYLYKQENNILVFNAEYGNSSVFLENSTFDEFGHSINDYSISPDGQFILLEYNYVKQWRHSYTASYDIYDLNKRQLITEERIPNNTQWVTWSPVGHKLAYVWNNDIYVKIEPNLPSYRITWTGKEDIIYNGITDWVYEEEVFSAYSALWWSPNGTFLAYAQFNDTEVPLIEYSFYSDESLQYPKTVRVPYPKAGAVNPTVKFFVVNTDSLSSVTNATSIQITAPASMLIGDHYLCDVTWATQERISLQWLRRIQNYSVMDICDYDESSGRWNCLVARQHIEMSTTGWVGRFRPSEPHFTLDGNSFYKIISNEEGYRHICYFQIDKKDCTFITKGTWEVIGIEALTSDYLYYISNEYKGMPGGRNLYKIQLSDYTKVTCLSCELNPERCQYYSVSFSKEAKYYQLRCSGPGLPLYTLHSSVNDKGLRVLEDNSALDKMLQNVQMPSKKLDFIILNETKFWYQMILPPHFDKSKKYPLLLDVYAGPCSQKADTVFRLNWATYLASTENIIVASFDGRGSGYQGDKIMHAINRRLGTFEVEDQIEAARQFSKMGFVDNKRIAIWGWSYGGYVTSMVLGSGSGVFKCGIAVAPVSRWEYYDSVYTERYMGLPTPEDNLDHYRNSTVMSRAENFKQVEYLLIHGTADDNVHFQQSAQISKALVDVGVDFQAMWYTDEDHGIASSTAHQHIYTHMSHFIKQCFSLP
assay.method.text: Inhibition of DPP4 (unknown origin)
outcome.measure: IC50 (µM)
Give bare numbers, in µM.

[ask] Fill blank: measured IC50 of the molecule CC#CCn1c(N2CCC[C@@H](N)C2)cc(=O)n(Cc2cn(CCC(=O)OC)nn2)c1=O is ____.
[reply] 0.0643
